tested on: SK-MEL-5 melanoma; assay: NCI tumour cell line growth inhibition, 48 h; in the data active = GI50 below about 0.43 µM; inactive = the rest
Outcome codes: active, inactive

COc1ccc2c(c1)CC[C@@H]1[C@@H]2CC[C@]2(C)C=C(/C=C/C(=O)c3ccccc3)C[C@@H]12	inactive
O=C(NCCCCOCC#Cc1ccccc1C#CCS(=O)(=O)c1ccccc1)c1cc2ccccc2[nH]1	inactive
COc1cccc(C2=C(c3cn(C)c4cccc(OC)c34)C(=O)NC2=O)c1	inactive
c1ccc2nc(OCCN3CC3)ccc2c1	inactive
CC(=O)N1CCN(CCOc2ccc(C3CCN(C4=Nn5c(nnc5C(F)(F)F)CC4)CC3)cc2)CC1	inactive
CCCCOc1ccc(/C=N/Nc2cc(C)nc3ccc(Cl)cc23)cc1	inactive
O=C1c2ccn(CCCCN3CCC(O)CC3)c2C(=O)c2c1c(O)c1ccccc1c2O	inactive
Cc1cc(S(=O)(=O)Nc2nc3cc(Cl)ccc3o2)c(SCc2ccccc2)cc1Cl	inactive
O=[N+]([O-])c1cc(F)c2cccnc2c1O	inactive
CCOC(=O)c1ccccc1-c1c2ccc(=[N+](C)C)cc-2oc2cc(N(C)C)ccc12	active
CN(C)CCNc1nc2ccccc2c2c(=O)c3ccccc3sc12	inactive
N=C(N)c1ccc(-c2ccc(-c3ccc(F)cc3)s2)s1	inactive
OC(COc1cccc2ccccc12)CN1CCN(c2ccccc2Cl)CC1 (stereo not given)	inactive
O=[As]c1ccc(C(=O)c2ccc(Oc3ccccc3)cc2)cc1 (stereo not given)	active
COc1cc(-c2nn(-c3ccc(NC(=O)c4cc(Cl)cc(Cl)c4)cc3)cc2-c2ccncc2)ccc1Cl	inactive

---

We begin with a simple list: items and their reported TGI.
test system: NCI/ADR-RES ovarian; assay: NCI tumour cell line growth inhibition, 48 h
recorded-metric: TGI (nM)

CC1(C)[C@@H](OC(N)=O)C=C[C@]2(C=O)[C@H]3CC[C@]4(C)[C@@H](c5ccc(=O)oc5)[C@@H](Cl)C[C@]4(O)C3=CC[C@@H]12	16.7
Oc1c(CN2CCOCC2)cc(COCc2ccccc2)c2cccnc12	1880
COc1ccc2[nH]c(O)c(/C=c3/cc4c(c(-c5ccc(F)cc5)n3)=Nc3ccccc3-4)c2c1	5630

---

tested on: SF-295 CNS; assay: NCI tumour cell line growth inhibition, 48 h
recorded-metric: GI50

O=c1c2c3c(sc2n2c(-c4ccc(Br)cc4)nnc2n1Cc1ccccc1)CCCC3	2420 nM
COc1ccc(-c2c(N)n[nH]c2-c2cc(OC)c(OC)c(OC)c2)cc1	75.8 nM
CCOC(=O)/C(C#N)=C/Nc1ccc(-c2nc3ccccc3[nH]2)cc1	27400 nM

---

We begin with a simple list: items and their reported TGI.
system: HOP-92 NSCLC; assay: NCI tumour cell line growth inhibition, 48 h
recorded-metric: TGI

C=CCCC(=O)N1C=CC(=O)[C@H](O)[C@@H]1/C=C/c1ccccc1	> 32.5 µM
O=[N+]([O-])c1cc(Cl)ccc1S(=O)(=O)N1CCCc2cc(Cl)ccc21	> 100 µM
Cc1cc(O)cc2c1c(=O)c1ccccc1n2C	93.6 µM
O=S(=O)(/N=C(\NO)Nc1ccc(Cl)cc1)c1ccc(-c2ccccn2)s1	> 100 µM
Cc1ccc2c(c1)C(=O)c1c-2n(CCCN=[N+]=[N-])c(=O)c2cc([N+](=O)[O-])ccc12	> 100 µM
Cn1ncc(-c2ccc3c(=O)[nH]nc(CN)c3c2)c1-c1c(F)cc2ccccc2c1C#N	18.1 µM
N=C(N)SCCc1ccccn1	> 100 µM
COC(=O)C1CC(C(=O)OC)c2nc3cc(C)c(C)cc3nc21 (stereo unspecified)	> 100 µM
Cc1sc2ncn(Cc3ccc(Cl)c(Cl)c3)c(=O)c2c1C	73.7 µM
O=C1c2ccccc2-c2c1c1ccccc1c(=O)n2-c1ccccc1	> 50.3 µM
O=C(CC(=O)c1ccccc1)c1ccccc1	51.3 µM
